Measured values drawn from patent US20250304620A1 for this set.

Test system: Pseudomonas aeruginosa ATCC 27853
assay-method-text: Injectable formulations on mice infected with peritonitis
Format: in vivo, ICR mice
measurement-context: 1 mg/kg via tail vein, twice a day for 3 days, observed for 14 d, n = 10
Marks after values point to notes of the source that are not given here. Non-standard residues stand in square brackets, D forms with d. Residues, ends and D or L forms follow the SMILES beside them. dPhe(4-F) = N[C@H](Cc1ccc(F)cc1)C(=O)O; d2Nal = N[C@H](Cc1ccc2ccccc2c1)C(=O)O; d(hLeu) = CC(C)CC[C@@H](N)C(=O)O
test-readout: Average survival times (Days)

[[record]]
molecule = "CC(=O)N[C@H](CCCNC(=N)N)C(=O)N[C@H](CCCCN)C(=O)N[C@H](C)C(=O)N[C@H](C)C(=O)N[C@H](Cc1ccc2ccccc2c1)C(=O)N[C@H](CCCNC(=N)N)C(=O)N[C@H](C)C(=O)N[C@H](CCCCN)C(=O)N[C@H](Cc1ccc2ccccc2c1)C(=O)N[C@H](CCCNC(=N)N)C(=O)N[C@H](CCCCN)C(N)=O [LV-15] (Ac-[dR][dK][dA][dA][d2Nal][dR][dA][dK][d2Nal][dR][dK]-NH2)"
assayed_target = "Pseudomonas aeruginosa ATCC 27853"
test_readout = "Average survival times (Days)"
recorded_value = "8.3** Days"

[[record]]
molecule = "CC(=O)N[C@H](CCCCN)C(=O)N[C@H](CCCCN)C(=O)N[C@H](CC(C)C)C(=O)N[C@H](CC(C)C)C(=O)N[C@H](Cc1ccc2ccccc2c1)C(=O)N[C@H](CCCCN)C(=O)N[C@H](CC(C)C)C(=O)N[C@H](CCCCN)C(=O)N[C@H](Cc1ccc2ccccc2c1)C(=O)N[C@H](CCCCN)C(=O)N[C@H](CCCCN)C(N)=O [LV-17] (Ac-[dK][dK][dL][dL][d2Nal][dK][dL][dK][d2Nal][dK][dK]-NH2)"
assayed_target = "Pseudomonas aeruginosa ATCC 27853"
test_readout = "Average survival times (Days)"
recorded_value = "10.6**** Days"

[[record]]
molecule = "CC(=O)N[C@H](CCCNC(=N)N)C(=O)N[C@H](CCCCN)C(=O)N[C@H](CC(C)C)C(=O)N[C@H](CC(C)C)C(=O)N[C@H](Cc1ccc(F)cc1)C(=O)N[C@H](CCCCN)C(=O)N[C@H](CC(C)C)C(=O)N[C@H](CCCCN)C(=O)N[C@H](Cc1ccc(F)cc1)C(=O)N[C@H](CCCCN)C(=O)N[C@H](CCCNC(=N)N)C(N)=O [LV-5] (Ac-[dR][dK][dL][dL][dPhe(4-F)][dK][dL][dK][dPhe(4-F)][dK][dR]-NH2)"
assayed_target = "Pseudomonas aeruginosa ATCC 27853"
test_readout = "Average survival times (Days)"
recorded_value = "9.5*** Days"

[[record]]
molecule = "CC(=O)N[C@H](CCCNC(=N)N)C(=O)N[C@H](CCCCN)C(=O)N[C@H](CCC(C)C)C(=O)N[C@H](CCC(C)C)C(=O)N[C@H](Cc1ccc2ccccc2c1)C(=O)N[C@H](CCCNC(=N)N)C(=O)N[C@H](CCC(C)C)C(=O)N[C@H](CCCCN)C(=O)N[C@H](Cc1ccc2ccccc2c1)C(=O)N[C@H](CCCNC(=N)N)C(=O)N[C@H](CCCCN)C(N)=O [LV-14] (Ac-[dR][dK][d(hLeu)][d(hLeu)][d2Nal][dR][d(hLeu)][dK][d2Nal][dR][dK]-NH2)"
assayed_target = "Pseudomonas aeruginosa ATCC 27853"
test_readout = "Average survival times (Days)"
recorded_value = "8.4** Days"

[[record]]
molecule = "CC(=O)N[C@H](CCCNC(=N)N)C(=O)N[C@H](CCCCN)C(=O)N[C@H](CC(C)C)C(=O)N[C@H](CC(C)C)C(=O)N[C@H](Cc1ccc2ccccc2c1)C(=O)N[C@H](CCCCN)C(=O)N[C@H](CC(C)C)C(=O)N[C@H](CCCCN)C(=O)N[C@H](Cc1ccc2ccccc2c1)C(=O)N[C@H](CCCCN)C(=O)N[C@H](CCCNC(=N)N)C(N)=O [LV-18] (Ac-[dR][dK][dL][dL][d2Nal][dK][dL][dK][d2Nal][dK][dR]-NH2)"
assayed_target = "Pseudomonas aeruginosa ATCC 27853"
test_readout = "Average survival times (Days)"
recorded_value = "10.9**** Days"

